Target: PI3K-delta (Homo sapiens, UniProt O00329)
Construct: Millipore 14-604
Sequence (O00329 whole entry): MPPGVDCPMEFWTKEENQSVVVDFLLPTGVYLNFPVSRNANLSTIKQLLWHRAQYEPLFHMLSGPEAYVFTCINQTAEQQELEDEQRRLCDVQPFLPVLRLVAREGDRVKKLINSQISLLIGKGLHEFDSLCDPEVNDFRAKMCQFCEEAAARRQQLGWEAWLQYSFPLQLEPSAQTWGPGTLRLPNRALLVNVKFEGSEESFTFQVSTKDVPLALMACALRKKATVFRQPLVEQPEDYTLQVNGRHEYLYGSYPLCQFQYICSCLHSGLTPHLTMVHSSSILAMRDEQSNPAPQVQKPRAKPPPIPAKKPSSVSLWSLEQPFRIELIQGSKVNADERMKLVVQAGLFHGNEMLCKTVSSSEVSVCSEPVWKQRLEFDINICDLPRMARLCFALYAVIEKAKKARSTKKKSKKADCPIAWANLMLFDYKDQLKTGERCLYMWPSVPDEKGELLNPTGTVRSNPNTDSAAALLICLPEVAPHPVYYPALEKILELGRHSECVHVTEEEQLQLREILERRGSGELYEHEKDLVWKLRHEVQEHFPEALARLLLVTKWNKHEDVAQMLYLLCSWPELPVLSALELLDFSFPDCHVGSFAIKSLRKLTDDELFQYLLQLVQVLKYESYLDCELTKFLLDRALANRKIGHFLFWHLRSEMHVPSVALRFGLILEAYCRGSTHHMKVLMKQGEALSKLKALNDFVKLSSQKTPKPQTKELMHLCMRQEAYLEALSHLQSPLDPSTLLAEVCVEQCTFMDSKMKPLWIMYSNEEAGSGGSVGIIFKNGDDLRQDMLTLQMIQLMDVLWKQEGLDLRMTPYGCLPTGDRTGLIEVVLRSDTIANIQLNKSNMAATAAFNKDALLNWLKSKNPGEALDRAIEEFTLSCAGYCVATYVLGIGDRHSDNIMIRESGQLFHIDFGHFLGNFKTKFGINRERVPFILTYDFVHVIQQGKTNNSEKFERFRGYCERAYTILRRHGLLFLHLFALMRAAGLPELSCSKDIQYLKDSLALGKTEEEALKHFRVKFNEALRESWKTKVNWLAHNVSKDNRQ
Sequence (P27986 whole entry partner): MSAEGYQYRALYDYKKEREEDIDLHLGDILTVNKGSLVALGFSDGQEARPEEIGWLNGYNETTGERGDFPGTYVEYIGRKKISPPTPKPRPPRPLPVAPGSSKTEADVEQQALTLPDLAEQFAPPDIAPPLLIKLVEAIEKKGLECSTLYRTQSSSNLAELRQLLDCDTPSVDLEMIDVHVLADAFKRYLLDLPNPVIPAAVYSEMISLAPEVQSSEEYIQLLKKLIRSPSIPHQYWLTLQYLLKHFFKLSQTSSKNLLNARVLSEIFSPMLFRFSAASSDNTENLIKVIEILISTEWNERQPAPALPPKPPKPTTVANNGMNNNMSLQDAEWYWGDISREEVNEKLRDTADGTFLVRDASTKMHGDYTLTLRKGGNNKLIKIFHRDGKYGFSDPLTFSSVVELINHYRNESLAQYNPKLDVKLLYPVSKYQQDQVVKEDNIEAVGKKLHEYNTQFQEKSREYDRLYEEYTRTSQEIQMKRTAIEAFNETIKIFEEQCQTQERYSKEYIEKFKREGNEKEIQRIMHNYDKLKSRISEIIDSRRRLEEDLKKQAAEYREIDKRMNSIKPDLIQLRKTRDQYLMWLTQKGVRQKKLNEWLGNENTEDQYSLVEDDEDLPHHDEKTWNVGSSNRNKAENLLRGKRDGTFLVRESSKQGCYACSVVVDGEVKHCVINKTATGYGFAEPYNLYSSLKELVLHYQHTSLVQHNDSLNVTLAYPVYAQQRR
Experiment: HTRF PI3K biochemical assay, delta isoform
Conditions: form screened (neutral or TFA salt) given, read-out: PI3Kdelta IC50
Label YES when IC50 is strictly below 0.01 µM; at or above that, label NO.

The following compounds have reported results that may help.
compound=CCC(=O)N1CC[C@H](Nc2ncnc3c2nc(-c2ccc4[nH]ccc4c2)n3C)C1 experimental_system="PI3K-delta (Homo sapiens, UniProt O00329)" answer_label=NO
compound=CCc1ccnc(N2CC[C@H](Nc3ncnc4c3nc(-c3cnc(C)nc3)n4CC)C2)c1 experimental_system="PI3K-delta (Homo sapiens, UniProt O00329)" answer_label=YES
compound="CCn1c(-c2ccc(C(F)(F)F)nc2)nc2c(N[C@H]3CCN(C(=O)C4CCOC4)C3)ncnc21 (single isomer, unassigned)" experimental_system="PI3K-delta (Homo sapiens, UniProt O00329)" answer_label=YES
compound=CCn1c(C(=O)N(C)C)nc2c(N[C@H]3CCN(C(=O)C4CC4)C3)ncnc21 experimental_system="PI3K-delta (Homo sapiens, UniProt O00329)" answer_label=NO
compound=CCn1c(-c2cncc(-c3ccccc3)c2)nc2c(N[C@H]3CCN(C(=O)C4CC4)C3)ncnc21 experimental_system="PI3K-delta (Homo sapiens, UniProt O00329)" answer_label=YES

Regarding CCn1c(C(=O)NC2COC2)nc2c(N[C@H]3CCN(C(=O)C4CC4)C3)ncnc21 , kindly confirm whether its IC50 is beneath 0.01 µM.
NO

Same question, CCn1ncc(-c2nc3c(N[C@H]4CCCN(C(=O)C5CCOCC5)C4)ncnc3n2C)c1C this time
NO

Same question, CCn1c(-c2cnc(C)nc2)nc2c(N[C@H]3CCN(C(=O)OCC(C)(C)C)C3)ncnc21 this time
YES

---

Target: PI3K-delta (Homo sapiens)
Construct: Millipore 14-604
Test: HTRF PI3K biochemical assay, delta isoform
Settings: form screened (neutral or TFA salt) given, read-out: PI3Kdelta IC50
Recorded IC50 by entry
Quick reminder: number only, in nM, skip the unit.

Below, 4 compounds whose answers are already recorded.
compound="CCn1c(-c2cnc(C)nc2)nc2c(N[C@H]3CCN(C(=O)NC(C)(C)C(=O)OC)C3)ncnc21 [Compound 12-24]" property_label=IC50 measurement=1.9
compound="CCn1c(-c2cnc(C)nc2)nc2c(N[C@H]3C[C@H](C(=O)O)N(C(=O)C4CC4)C3)ncnc21 [Compound 15-1]" property_label=IC50 measurement=2.5
compound="CCn1ncc(-c2nc3c(N[C@@H]4CCN(C(=O)c5nc(C)oc5C)C4)ncnc3n2C)c1C [Compound 2-2]" property_label=IC50 measurement=52
compound="CCn1c(COC)nc2c(N[C@H]3CCN(C(=O)C4CC4)C3)ncnc21 [Compound 7-8]" property_label=IC50 measurement=190

// lookup IC50 for CCn1c(-c2cnc(C)nc2)nc2c(NC3CN(C(=O)C4CC4)CC3C(F)(F)F)ncnc21 (racemic) [Compound 3-22]
2.9

---

Recorded log10 IC50 by entry
Target: PI3K-delta (Homo sapiens)
Construct: Millipore 14-604
Assay: HTRF PI3K biochemical assay, delta isoform
Conditions: form screened (neutral or TFA salt) given, read-out: PI3Kdelta IC50
Give log10 of IC50, with IC50 taken in nM.

molecule="CCn1c(-c2cnc(OC)c(F)c2)nc2c(N[C@H]3CCN(C(=O)c4cocn4)C3)ncnc21 [Compound 3A-1]" measurement=0.00

// lookup log10 IC50 for CCn1c(-c2cnc(C)nc2)nc2c(N[C@H]3CCN(C(=O)NC4CCC4)C3)ncnc21 [Compound 12-22]
0.72

Same question, CCC1CN(C(=O)C2CC2)CC1Nc1ncnc2c1nc(-c1cnc(C)nc1)n2CC (racemic) [Compound 3-19] this time
0.58

Same question, CCn1c(OC(C)C)nc2c(N[C@H]3CCN(C(=O)C4CC4)C3)ncnc21 [Compound 8-7] this time
1.54

Same question, CCn1c(C(C)C)nc2c(N[C@H]3CCN(C(=O)C4CC4)C3)ncnc21 [Compound 7-5] this time
2.11

Same question, CCn1c(C#Cc2cncnc2)nc2c(N[C@H]3CCN(C(=O)C4CC4)C3)ncnc21 [Compound 16-2] this time
1.30

Same question, CCn1c(-c2cnc(C)nc2)nc2c(N[C@H]3CCN(C(=O)CCNC)C3)ncnc21 [Compound 2-86] this time
1.66

Same question, CCn1c(-c2cnc(C)nc2)nc2c(N[C@H]3CCN(C(=O)NC4CC4)C3)ncnc21 [Compound 12-6] this time
0.23

Same question, CCn1c(-c2cnc(C)nc2)nc2c(N[C@H]3CCN(C(=O)C4(NC)CC4)C3)ncnc21 [Compound 2-82] this time
1.32

Same question, CCC(=O)N1CC[C@H](Nc2ncnc3c2nc(-c2cncc(N)c2)n3C)C1 [Compound 3-13] this time
0.38

---

Molecular target: PI3K-delta (Homo sapiens, UniProt O00329)
Construct: Millipore 14-604
Assay: HTRF PI3K biochemical assay, delta isoform
Settings: form screened (neutral or TFA salt) given, read-out: PI3Kdelta IC50
Recorded pIC50 by entry
Expect pIC50 as a plain number equal to -log10 of the molar concentration.

molecule="CCn1c(-c2cnc(C)nc2)nc2c(N[C@H]3C[C@H](C(=O)OC)N(C(=O)C4CC4)C3)ncnc21 [Compound 2-53]" property_label=pIC50 measurement=8.33
molecule="CCC(=O)N1CC[C@H](Nc2ncnc3c2nc(-c2ccc4cn[nH]c4c2)n3C)C1 [Compound 3-6]" property_label=pIC50 measurement=8.80
molecule="CCn1c(-c2cnc(C)nc2)nc2c(N[C@H]3CCN(C(=O)[C@H]4CC[C@H](O)CC4)C3)ncnc21 [Compound 2-99]" property_label=pIC50 measurement=8.55
molecule="CCn1c(-c2cnc(C)nc2)nc2c(N[C@H]3CCN(C(=O)C4CCNCC4)C3)ncnc21 [Compound 2-78]" property_label=pIC50 measurement=8.34
molecule="CCn1c(C(F)F)nc2c(N[C@H]3CCN(C(=O)C4CC45CCCC5)C3)ncnc21 (single isomer, unassigned) [Compound 7-21]" property_label=pIC50 measurement=8.62
molecule="CCn1c(-c2cnc(C)nc2)nc2c(N[C@H]3CCN(c4nccc5ccccc45)C3)ncnc21 [Compound 4-9]" property_label=pIC50 measurement=8.18

// lookup pIC50 for CCn1ncc(-c2nc3c(N[C@H]4CCN(C(=O)c5nc(C)oc5C)C4)ncnc3n2C)c1C [Compound 2-5]
8.82

Same question, CCn1c(-c2cnc(C)nc2)nc2c(N[C@H]3CCN(C(=O)N4CCCCC4)C3)ncnc21 [Compound 12-5] this time
8.92

Same question, CCC(=O)N1CC[C@H](Nc2ncnc3c2nc(-c2ncn(CC)c2C)n3C)C1 [Compound 3-12] this time
6.16

Same question, CCn1c(C#CCOC)nc2c(N[C@H]3CCN(C(=O)C4CC4)C3)ncnc21 [Compound 16-3] this time
7.20

---

Target: PI3K-alpha (Homo sapiens)
Construct: purchased Upstate; Millipore 14-602
Sequence (P42336 whole entry): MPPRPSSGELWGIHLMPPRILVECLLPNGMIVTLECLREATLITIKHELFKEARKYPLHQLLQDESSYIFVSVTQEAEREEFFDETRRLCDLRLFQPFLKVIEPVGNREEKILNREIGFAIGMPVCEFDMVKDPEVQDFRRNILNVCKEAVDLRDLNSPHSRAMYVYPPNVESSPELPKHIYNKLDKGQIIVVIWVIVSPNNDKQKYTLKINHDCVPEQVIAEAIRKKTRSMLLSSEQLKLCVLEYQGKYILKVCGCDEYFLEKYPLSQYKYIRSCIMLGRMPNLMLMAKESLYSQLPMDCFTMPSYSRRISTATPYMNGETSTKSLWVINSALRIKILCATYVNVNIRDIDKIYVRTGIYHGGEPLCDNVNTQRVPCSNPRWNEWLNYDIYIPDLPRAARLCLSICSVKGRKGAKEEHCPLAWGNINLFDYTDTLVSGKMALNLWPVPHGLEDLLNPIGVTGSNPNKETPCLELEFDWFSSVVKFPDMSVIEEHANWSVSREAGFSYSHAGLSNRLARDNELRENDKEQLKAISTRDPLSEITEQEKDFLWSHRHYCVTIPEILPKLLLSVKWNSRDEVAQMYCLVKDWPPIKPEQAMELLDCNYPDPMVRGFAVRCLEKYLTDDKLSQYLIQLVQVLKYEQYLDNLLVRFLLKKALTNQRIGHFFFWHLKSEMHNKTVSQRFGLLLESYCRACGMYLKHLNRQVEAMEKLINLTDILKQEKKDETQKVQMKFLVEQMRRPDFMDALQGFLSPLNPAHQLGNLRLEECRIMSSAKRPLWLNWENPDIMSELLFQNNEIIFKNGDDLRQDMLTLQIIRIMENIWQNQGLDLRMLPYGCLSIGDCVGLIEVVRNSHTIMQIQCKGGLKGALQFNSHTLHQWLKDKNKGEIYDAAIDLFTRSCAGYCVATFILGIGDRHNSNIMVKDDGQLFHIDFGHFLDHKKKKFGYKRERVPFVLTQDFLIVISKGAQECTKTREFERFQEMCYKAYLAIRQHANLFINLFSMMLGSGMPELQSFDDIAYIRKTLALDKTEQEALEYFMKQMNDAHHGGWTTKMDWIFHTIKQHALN
Sequence (P27986 whole entry partner): as the sequence (P27986 whole entry partner) above
Assay: HTRF PI3K biochemical assay, alpha isoform
Settings: ratio PI3K-alpha IC50 value / PI3K-delta IC50 value
Recorded Selectivity versus PI3Kalpha by entry

Below, 4 molecules whose answers are already recorded.
molecule=CCn1c(C(=O)NCC(F)(F)F)nc2c(N[C@H]3CCN(C(=O)C4CC4)C3)ncnc21 property_label="Selectivity versus PI3Kalpha" measurement=>10
molecule=CCn1c(-c2cnc(C)nc2)nc2c(N[C@H]3CCN(C(=O)CC(C)(C)O)C3)ncnc21 property_label="Selectivity versus PI3Kalpha" measurement=>10
molecule=CCn1c(-c2cnc(C)nc2)nc2c(N[C@H]3CCN(C(=O)N4CC[C@H](OC)C4)C3)ncnc21 property_label="Selectivity versus PI3Kalpha" measurement=>10
molecule=CCn1c(-n2cnc3ccccc32)nc2c(N[C@H]3CCN(C(=O)C4CC4)C3)ncnc21 property_label="Selectivity versus PI3Kalpha" measurement=>10

// lookup Selectivity versus PI3Kalpha for CCn1c(-c2cnc(C)nc2)nc2c(N[C@H]3CCN(C(=O)[C@H]4CC[C@@H](O)CC4)C3)ncnc21
>10

Same question, CCn1c(-c2cnc(C)nc2)nc2c(N[C@H]3CCN(C(=O)NCc4ccco4)C3)ncnc21 this time
>10

Same question, CCn1c(-c2cnc(C)nc2)nc2c(N[C@H]3CCN(C(=O)C4(COC)CC4)C3)ncnc21 this time
>10

Same question, CCn1c(-c2cnc(C)nc2)nc2c(N[C@H]3CCN(C(=O)C4(COC)CCC4)C3)ncnc21 this time
>10

Same question, CCn1c(-c2cnc(C)nc2)nc2c(N[C@H]3CCN(C(=O)C4CCCO4)C3)ncnc21 (single isomer, unassigned) [Compound 2-33] this time
>10

Same question, CCn1c(-c2cnc(C)nc2)nc2c(N[C@H]3CCN(C(=O)OC(C)C)C3)ncnc21 this time
>10

---

Molecular target: PI3K-delta (Homo sapiens, UniProt O00329)
Construct: purchased Upstate; Millipore 14-604
Assay: HTRF PI3K biochemical assay, delta isoform
Conditions: form screened (neutral or TFA salt) given, read-out: PI3Kdelta IC50
Label fulfilled when IC50 is strictly below 4 nM; at or above that, label not fulfilled.

Regarding CCn1c(-c2cnc(C)nc2)nc2c(N[C@H]3CCN(C(=O)C4(COC)CCC4)C3)ncnc21 , kindly confirm whether its IC50 is beneath 4 nM.
not fulfilled

Same question, CCC(=O)N1CC[C@H](Nc2ncnc3c2nc(-c2cnc(OC)c(C)c2)n3C)C1 this time
fulfilled

Same question, CCn1c(-c2cnc(C)nc2)nc2c(NC3CN(C(=O)C4CC4)CC3(F)F)ncnc21 (racemic) [Compound 2-25] this time
fulfilled

Same question, CCc1nc2c(N[C@H]3CCN(C(=O)C4CC4)C3)ncnc2n1CC this time
not fulfilled

Same question, CCn1c(-c2cnc(C)nc2)nc2c(N[C@H]3CCN(C(=O)c4nnsc4C)C3)ncnc21 this time
not fulfilled

Same question, CCn1c(-c2ccc(OC)nc2)nc2c(N[C@H]3CCN(C(=O)OC(C)(C)C)C3)ncnc21 this time
fulfilled

Same question, CCn1c(-c2cnc(C)nc2)nc2c(NC3CCCC(NC(=O)c4cocn4)C3)ncnc21 (single isomer, unassigned) this time
not fulfilled

Same question, CCn1c(-c2cnc(C)nc2)nc2c(N[C@H]3CCCN(c4ccccn4)C3)ncnc21 this time
not fulfilled

Same question, CCn1c(-c2cnc(C)nc2)nc2c(N[C@H]3CCN(C(=O)c4cocn4)C3)ncnc21 this time
fulfilled

Same question, CCn1c(-c2cnc(OC)c(C)c2)nc2c(N[C@H]3CCN(C(=O)C4CC(F)(F)C4)C3)ncnc21 this time
fulfilled

Same question, CCCCNC(=O)N1CC[C@H](Nc2ncnc3c2nc(-c2cnc(C)nc2)n3CC)C1 this time
fulfilled

Same question, CCn1c(C(=O)NCC2CC2)nc2c(N[C@H]3CCN(C(=O)C4CC4)C3)ncnc21 this time
not fulfilled

Same question, CCn1ncc(-c2nc3c(N[C@H]4CCN(C(=O)C5CC5)C4)ncnc3n2C)c1C this time
fulfilled

Same question, CCn1c(-c2cnc(C)nc2)nc2c(N[C@H]3CCN(C(=O)NCC4CC4)C3)ncnc21 this time
not fulfilled
